# Test system: 276233-004-R-J1-PDC complex spheroid viability
# measurement.protocol: Anticancer human tumor 276233-004-R-J1-PDC patient-derived colon adenocarcinoma cell line growth inhibition [GQUAD]
# protocol.conditions: second compound 1 µM; first compound 0.316 µM; stronger effect = lower value
value.kind: viability, T/C (%)
Enter your answer as a number in %; do not include the unit.

>  <molecule>
CC(C)n1c(=O)n(C)c2cnc3cc(F)c(-c4ccc(OCCCN5CCCCC5)nc4)cc3c21 + Cc1cnc(CNC(=O)c2c(=O)c3ccc(N4CCCN(C)CC4)nc3n3c2sc2ccccc23)cn1

>  <viability, T/C / %>
89.3

$$$$
>  <molecule>
CC(C)(O)C1CCC(Nc2ccc3ncc(-c4cccc(C(F)(F)F)c4)n3n2)CC1 (stereo unspecified) + Cc1cnc(CNC(=O)c2c(=O)c3ccc(N4CCCN(C)CC4)nc3n3c2sc2ccccc23)cn1

>  <viability, T/C / %>
84.7

$$$$
>  <molecule>
C=CCn1c(=O)c2cnc(Nc3ccc(N4CCN(C)CC4)cc3)nc2n1-c1cccc(C(C)(C)O)n1 + Cc1[nH]c2ccc(F)cc2c1-c1nc2c3cccnc3c3ncccc3c2[nH]1

>  <viability, T/C / %>
48

$$$$

Recall the reported viability, T/C of COc1ccc([C@@H](O)c2cc(-c3ncnc4cc(N5CCOCC5)ccc34)c(F)cc2Cl)nn1 + CN(C)c1ccc(Nc2c3ccc(NC(=O)CCN4CCCC4)cc3nc3cc(NC(=O)CCN4CCCC4)ccc23)cc1 on 276233-004-R-J1-PDC complex spheroid viability and write it down.
62.5

Recall the reported viability, T/C of O=C(NO)c1cnc(N2CCN(S(=O)(=O)c3ccc4ccccc4c3)CC2)nc1 + Cc1[nH]c2ccc(F)cc2c1-c1nc2c3cccnc3c3ncccc3c2[nH]1 on 276233-004-R-J1-PDC complex spheroid viability and write it down.
42.8

Recall the reported viability, T/C of CC1COCCN1c1cc(C2(O)CC3CCC(C2)O3)c2cnn(-c3ccn[nH]3)c2n1 (stereo unspecified) + Cc1[nH]c2ccc(F)cc2c1-c1nc2c3cccnc3c3ncccc3c2[nH]1 on 276233-004-R-J1-PDC complex spheroid viability and write it down.
65.6

----------
# Tested on: 276233-004-R-J1-PDC complex spheroid viability
# measurement.protocol: Anticancer human tumor 276233-004-R-J1-PDC cell line growth inhibition [GQUAD];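 further: spheroids exposed to drugs for seven days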
# protocol.conditions: curve of first compound; second compound 3.16 µM
pIC50: −log10 of the molar value.
Parameter pIC50: see the listing below.

Guide cases for pIC50, answers given:
>  <molecule>
Cc1cccc(N(C)C(=O)C2C(O)CCN2c2nc(C)cc(C(F)(F)F)c2C#N)c1 (stereo unspecified) + Cc1[nH]c2ccc(F)cc2c1-c1nc2c3cccnc3c3ncccc3c2[nH]1

>  <pIC50>
< 5.00

$$$$
>  <molecule>
CC[C@@]1(O)C(=O)OCc2c1cc1n(c2=O)Cc2cc3c(CN(C)C)c(O)ccc3nc2-1 + Cc1cnc(CNC(=O)c2c(=O)c3ccc(N4CCCN(C)CC4)nc3n3c2sc2ccccc23)cn1

>  <pIC50>
< 6.50

$$$$
>  <molecule>
Cc1[nH]c2ccccc2c1CCNCc1ccc(/C=C/C(=O)NO)cc1 + Cc1cnc(CNC(=O)c2c(=O)c3ccc(N4CCCN(C)CC4)nc3n3c2sc2ccccc23)cn1

>  <pIC50>
7.33

$$$$
>  <molecule>
C#Cc1c(F)ccc2cc(O)cc(-c3ncc4c(N5CC6CCC(C5)N6)nc(OCC56CCCN5CC(F)C6)nc4c3F)c12 (stereo unspecified) + Cc1[nH]c2ccc(F)cc2c1-c1nc2c3cccnc3c3ncccc3c2[nH]1

>  <pIC50>
> 7.50

$$$$
>  <molecule>
CC1COCCN1c1cc(C2(S(C)(=N)=O)CC2)nc(-c2ccnc3[nH]ccc23)n1 (stereo unspecified) + Cc1cnc(CNC(=O)c2c(=O)c3ccc(N4CCCN(C)CC4)nc3n3c2sc2ccccc23)cn1

>  <pIC50>
5.23

$$$$
>  <molecule>
CC1COCCN1c1cc(C2(S(C)(=N)=O)CC2)nc(-c2ccnc3[nH]ccc23)n1 (stereo unspecified) + CN(C)c1ccc(Nc2c3ccc(NC(=O)CCN4CCCC4)cc3nc3cc(NC(=O)CCN4CCCC4)ccc23)cc1

>  <pIC50>
5.50

$$$$
>  <molecule>
C=CCn1c(=O)c2cnc(Nc3ccc(N4CCN(C)CC4)cc3)nc2n1-c1cccc(C(C)(C)O)n1 + Cc1[nH]c2ccc(F)cc2c1-c1nc2c3cccnc3c3ncccc3c2[nH]1

>  <pIC50>
> 7.50

$$$$
>  <molecule>
CCCS(=O)(=O)Nc1ccc(F)c(C(=O)c2c[nH]c3ncc(-c4ccc(Cl)cc4)cc23)c1F + Cc1[nH]c2ccc(F)cc2c1-c1nc2c3cccnc3c3ncccc3c2[nH]1

>  <pIC50>
> 7.50

$$$$

For the molecule Nc1ccn(C2OC(CO)C(O)C2(F)F)c(=O)n1 (stereo unspecified) + CN(C)c1ccc(Nc2c3ccc(NC(=O)CCN4CCCC4)cc3nc3cc(NC(=O)CCN4CCCC4)ccc23)cc1 , give its measured pIC50 value.
< 5.00

For the molecule C=CC(=O)N1CCN(c2nc(=O)n(-c3c(C)ccnc3C(C)C)c3nc(-c4c(O)cccc4F)c(F)cc23)C(C)C1 (stereo unspecified) + Cc1cnc(CNC(=O)c2c(=O)c3ccc(N4CCCN(C)CC4)nc3n3c2sc2ccccc23)cn1 , give its measured pIC50 value.
< 5.00

For the molecule COc1cccc2c1C(=O)c1c(O)c3c(c(O)c1C2=O)CC(O)(C(=O)CO)CC3OC1CC(N)C(O)C(C)O1 (stereo unspecified) + Cc1[nH]c2ccc(F)cc2c1-c1nc2c3cccnc3c3ncccc3c2[nH]1 , give its measured pIC50 value.
6.38

----------
Parameter viability, T/C: see the listing below.
# Tested on: 276233-004-R-J1-PDC complex spheroid viability
# measurement.protocol: Anticancer human tumor 276233-004-R-J1-PDC cell line growth inhibition [GQUAD];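 further: spheroids exposed to drugs for seven days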;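 on viability, T/C: 100% = DMSO vehicle control viability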
# protocol.conditions: second compound 0.316 µM; first compound 0.1 µM; stronger effect = lower value
Enter your answer as a number in %; do not include the unit.

Guide cases for viability, T/C, answers given:
>  <compound>
O=C(c1cc(Cc2n[nH]c(=O)c3ccccc23)ccc1F)N1CCN(C(=O)C2CC2)CC1 + Cc1cnc(CNC(=O)c2c(=O)c3ccc(N4CCCN(C)CC4)nc3n3c2sc2ccccc23)cn1

>  <viability, T/C, %>
91.4

$$$$
>  <compound>
Nc1ccn(C2OC(CO)C(O)C2(F)F)c(=O)n1 (stereo unspecified) + CN(C)c1ccc(Nc2c3ccc(NC(=O)CCN4CCCC4)cc3nc3cc(NC(=O)CCN4CCCC4)ccc23)cc1

>  <viability, T/C, %>
78.7

$$$$
>  <compound>
Nc1ccn(C2OC(CO)C(O)C2(F)F)c(=O)n1 (stereo unspecified) + Cc1[nH]c2ccc(F)cc2c1-c1nc2c3cccnc3c3ncccc3c2[nH]1

>  <viability, T/C, %>
74.8

$$$$
>  <compound>
O=c1[nH]cc(F)c(=O)[nH]1 + Cc1cnc(CNC(=O)c2c(=O)c3ccc(N4CCCN(C)CC4)nc3n3c2sc2ccccc23)cn1

>  <viability, T/C, %>
99.8

$$$$
>  <compound>
O=C(c1cc(Cc2n[nH]c(=O)c3ccccc23)ccc1F)N1CCN(C(=O)C2CC2)CC1 + CN(C)c1ccc(Nc2c3ccc(NC(=O)CCN4CCCC4)cc3nc3cc(NC(=O)CCN4CCCC4)ccc23)cc1

>  <viability, T/C, %>
73.8

$$$$

Recall the reported viability, T/C of CC1COCCN1c1cc(-c2ccnn2C)c2ccnc(-c3ccn[nH]3)c2n1 (stereo unspecified) + CN(C)c1ccc(Nc2c3ccc(NC(=O)CCN4CCCC4)cc3nc3cc(NC(=O)CCN4CCCC4)ccc23)cc1 on 276233-004-R-J1-PDC complex spheroid viability and write it down.
61.6

Recall the reported viability, T/C of COc1ccc([C@@H](O)c2cc(-c3ncnc4cc(N5CCOCC5)ccc34)c(F)cc2Cl)nn1 + Cc1[nH]c2ccc(F)cc2c1-c1nc2c3cccnc3c3ncccc3c2[nH]1 on 276233-004-R-J1-PDC complex spheroid viability and write it down.
79.4

Recall the reported viability, T/C of CC1COCCN1c1cc(C2(O)CC3CCC(C2)O3)c2cnn(-c3ccn[nH]3)c2n1 (stereo unspecified) + Cc1[nH]c2ccc(F)cc2c1-c1nc2c3cccnc3c3ncccc3c2[nH]1 on 276233-004-R-J1-PDC complex spheroid viability and write it down.
76.1

----------
# System: 276233-004-R-J1-PDC complex spheroid viability
# measurement.protocol: Anticancer human tumor 276233-004-R-J1-PDC cell line growth inhibition [GQUAD];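 further: spheroids exposed to drugs for seven days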;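 on viability, T/C: 100% = DMSO vehicle control viability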
# protocol.conditions: second compound 0.0316 µM; first compound 0.1 µM; stronger effect = lower value
Parameter viability, T/C: see the listing below.
Enter your answer as a number in %; do not include the unit.

Guide cases for viability, T/C, answers given:
>  <compound>
Cc1cccc(N(C)C(=O)C2C(O)CCN2c2nc(C)cc(C(F)(F)F)c2C#N)c1 (configuration not stated) + Cc1[nH]c2ccc(F)cc2c1-c1nc2c3cccnc3c3ncccc3c2[nH]1

>  <viability, T/C, %>
83.8

$$$$
>  <compound>
COc1ccc([C@@H](O)c2cc(-c3ncnc4cc(N5CCOCC5)ccc34)c(F)cc2Cl)nn1 + Cc1[nH]c2ccc(F)cc2c1-c1nc2c3cccnc3c3ncccc3c2[nH]1

>  <viability, T/C, %>
77.9

$$$$
>  <compound>
O=C(c1cc(Cc2n[nH]c(=O)c3ccccc23)ccc1F)N1CCN(C(=O)C2CC2)CC1 + CN(C)c1ccc(Nc2c3ccc(NC(=O)CCN4CCCC4)cc3nc3cc(NC(=O)CCN4CCCC4)ccc23)cc1

>  <viability, T/C, %>
83.4

$$$$

For the compound Nc1ccn(C2OC(CO)C(O)C2(F)F)c(=O)n1 (configuration not stated) + CN(C)c1ccc(Nc2c3ccc(NC(=O)CCN4CCCC4)cc3nc3cc(NC(=O)CCN4CCCC4)ccc23)cc1 , give its measured viability, T/C value.
109

For the compound CC(C)n1c(=O)n(C)c2cnc3cc(F)c(-c4ccc(OCCCN5CCCCC5)nc4)cc3c21 + Cc1cnc(CNC(=O)c2c(=O)c3ccc(N4CCCN(C)CC4)nc3n3c2sc2ccccc23)cn1 , give its measured viability, T/C value.
71.9

For the compound CC(=O)O[C@H]1C(=O)[C@@]2(C)[C@H]([C@H](OC(=O)c3ccccc3)[C@]3(O)C[C@H](OC(=O)[C@H](O)[C@@H](NC(=O)c4ccccc4)c4ccccc4)C(C)=C1C3(C)C)[C@]1(OC(C)=O)CO[C@@H]1C[C@@H]2O + CN(C)c1ccc(Nc2c3ccc(NC(=O)CCN4CCCC4)cc3nc3cc(NC(=O)CCN4CCCC4)ccc23)cc1 , give its measured viability, T/C value.
98.3

For the compound O=C(c1cc(Cc2n[nH]c(=O)c3ccccc23)ccc1F)N1CCN(C(=O)C2CC2)CC1 + Cc1cnc(CNC(=O)c2c(=O)c3ccc(N4CCCN(C)CC4)nc3n3c2sc2ccccc23)cn1 , give its measured viability, T/C value.
85
